The reported numbers originate from paper doi:10.1101/2023.06.15.545071.

Target: T1, full-length ETR1, purified and fluorescently labelled (Arabidopsis, UniProt P49333 1-738, fluorescent label (dye and site not stated))
T1 chain: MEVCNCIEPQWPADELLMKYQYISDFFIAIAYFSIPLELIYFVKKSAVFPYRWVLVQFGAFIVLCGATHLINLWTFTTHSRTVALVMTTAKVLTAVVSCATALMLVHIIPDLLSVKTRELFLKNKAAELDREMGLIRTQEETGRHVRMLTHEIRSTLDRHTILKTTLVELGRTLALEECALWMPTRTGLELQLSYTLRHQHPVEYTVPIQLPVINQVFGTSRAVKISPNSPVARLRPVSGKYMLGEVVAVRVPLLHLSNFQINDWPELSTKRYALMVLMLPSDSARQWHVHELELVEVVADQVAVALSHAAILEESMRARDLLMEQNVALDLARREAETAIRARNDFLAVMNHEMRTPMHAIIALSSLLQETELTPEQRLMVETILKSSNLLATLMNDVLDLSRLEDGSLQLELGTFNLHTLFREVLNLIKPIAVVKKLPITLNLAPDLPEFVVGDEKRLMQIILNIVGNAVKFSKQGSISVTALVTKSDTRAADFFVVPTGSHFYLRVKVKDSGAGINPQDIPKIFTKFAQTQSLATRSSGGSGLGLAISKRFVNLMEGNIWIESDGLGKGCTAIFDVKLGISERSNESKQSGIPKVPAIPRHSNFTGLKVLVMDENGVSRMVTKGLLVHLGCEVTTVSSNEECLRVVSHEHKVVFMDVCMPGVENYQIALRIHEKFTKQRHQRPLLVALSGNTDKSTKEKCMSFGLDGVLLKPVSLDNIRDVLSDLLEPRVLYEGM
Test: MST
value-kind: Kd (nM)
The response must be a number in nM with no trailing unit.

Name the recorded Kd for MKPRLCFNFRRRSISPCYISISYLLVAKLFKLFKIH [synthetic full length PLS peptide PLS(FL)] .
1900
